Test system Src^p60 (Homo sapiens, UniProt P12931), IC50 listed for each of the compounds.

Quote IC50 with test system Src^p60 (Homo sapiens, UniProt P12931) for Fc1ccc(-c2nc3occn3c2-c2ccnc(NC3CN4CCC3CC4)n2)cc1 (centres unmarked) [LXXXIV]
> 29.5 µM

Provide measured IC50 on Src^p60 (Homo sapiens, UniProt P12931) for CS(=O)(=O)N1CCC(Nc2nccc(-c3c(-c4ccc(F)cc4)nc4occn34)n2)CC1 [CCLXXIX] please.
Sequence (P12931 whole entry): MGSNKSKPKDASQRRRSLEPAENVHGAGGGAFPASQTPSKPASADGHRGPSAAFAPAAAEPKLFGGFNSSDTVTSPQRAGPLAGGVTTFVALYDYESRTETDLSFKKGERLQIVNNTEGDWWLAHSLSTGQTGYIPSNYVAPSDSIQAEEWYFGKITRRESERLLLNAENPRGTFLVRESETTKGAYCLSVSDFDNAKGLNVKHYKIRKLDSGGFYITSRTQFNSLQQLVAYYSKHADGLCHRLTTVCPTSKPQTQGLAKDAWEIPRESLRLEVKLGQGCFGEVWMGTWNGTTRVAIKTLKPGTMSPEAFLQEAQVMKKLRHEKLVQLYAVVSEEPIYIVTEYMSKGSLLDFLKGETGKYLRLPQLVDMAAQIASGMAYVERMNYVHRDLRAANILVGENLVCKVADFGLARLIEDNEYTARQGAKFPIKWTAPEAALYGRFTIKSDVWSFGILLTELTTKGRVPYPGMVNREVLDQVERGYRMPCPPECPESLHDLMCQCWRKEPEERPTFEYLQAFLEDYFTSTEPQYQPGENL
> 64 µM

Lab note: Src^p60 (Homo sapiens, UniProt P12931) assay, enter IC50 for Fc1ccc(-c2nc3occn3c2-c2ccnc(N[C@H]3CN4CCC3CC4)n2)cc1 [LXXXVII] here
25.9 µM

Given CN1[C@@H]2CC[C@H]1C[C@@H](Nc1nccc(-c3c(-c4ccc(F)cc4)nc4occn34)n1)C2 [CCLXXXI] , report its IC50 on Src^p60 (Homo sapiens, UniProt P12931).
> 9.03 µM

Lab note: Src^p60 (Homo sapiens, UniProt P12931) assay, enter IC50 for Fc1ccc(-c2nc3occn3c2-c2ccnc(N[C@@H]3CN4CCC3CC4)n2)cc1 [LXXI] here
12.9 µM
